System: MDA-MB-435
Experiment: NCI tumour cell line growth inhibition, 48 h
metric: TGI

Summary for this compound, CN(Cc1cnc2nc(N)nc(N)c2n1)c1ccc(C(=O)NC(CCC(=O)O)C(=O)O)cc1C(F)(F)F (centres undefined) : TGI is > 100 µM

Summary for this compound, C/C=C/[C@H]1O[C@@](O)([C@@H](C)[C@H](O)[C@H](C)[C@H]2OC(=O)/C(OC)=C/C(C)=C/[C@@H](C)[C@@H](O)[C@@H](CC)[C@@H](O)[C@H](C)C/C(C)=C/C=C/[C@@H]2OC)C[C@H](OC2CC(O)C(O)C(C)O2)[C@@H]1C (some centres undefined) : TGI is 8.87 µM

Summary for this compound, CCOC(=O)c1c2c(c(O)c3ccccc3c(O)n(Cc3ccc(OC)cc3)c1C)C(=O)C=CC2=O : TGI is > 100 µM

Summary for this compound, O=c1c2cc(-c3ccccc3)sc2nc2n1N=C(c1ccccc1)CS2 : TGI is > 100 µM

Summary for this compound, NCCNc1c2c(c(NCCN)c3c(CO)c[nH]c13)C(=O)c1ccccc1C2=O : TGI is > 100 µM

Summary for this compound, N#Cc1c(-c2ccccc2)nc(SCC2CO2)nc1N1CCOCC1 (centres undefined) : TGI is > 100 µM

Summary for this compound, OC(c1cccc(-n2ccc(C(F)(F)F)n2)c1)c1cnccc1NC1CCCCCC1 (centres undefined) : TGI is 3.14 µM

Summary for this compound, COc1cc2c3c(n(CCCN)c(=O)c2cc1OC)-c1ccccc1C3=O : TGI is 18.9 µM

Summary for this compound, C/C(CC/C(C)=N/O)=N\O : TGI is > 100 µM

* * *

Test system: HL-60(TB) leukemia
Test: NCI tumour cell line growth inhibition, 48 h; in the data active = GI50 below about 0.43 µM; inactive = the rest
Pick from label 1 (active), label 0 (inactive) when you respond.

Asked: Record request — test call for Cc1ccc2c(c1)C(C)Cc1c(ncnc1-n1cnc3ccccc31)N2C (stereo not drawn)
Given back: label 1

Asked: Record request — test call for Nc1c(C(=O)c2cccc(CCCN3CCOCC3)c2)cnn1-c1ccc(F)cc1
Given back: label 0

Asked: Record request — test call for CCCCON(OC(=O)c1ccccc1)C(=O)c1ccccc1
Given back: label 0

Asked: Record request — test call for Cc1cccc(NC(=O)CCc2ccc(N3C(N)=NC(N)=NC3(C)C)cc2)c1
Given back: label 0

Asked: Record request — test call for Cc1nc(-c2cccc(Nc3nc(-c4ccc(Cl)cc4)cs3)c2)cs1
Given back: label 0

Asked: Record request — test call for F
Given back: label 0

Asked: Record request — test call for Nc1ccc2c(c1)C(=O)C(=O)c1c-2nc2ccccn12
Given back: label 0

Asked: Record request — test call for CC1(C)N=C(N)N=C(N)N1c1cccc(CCCCc2cccc(S(=O)(=O)F)c2)c1
Given back: label 0

* * *

System: SNB-19 CNS
Experiment: NCI tumour cell line growth inhibition, 48 h
Assign GI50 to each entry below.

Summary for this molecule, NCCNc1c2c(c(NCCN)c3c(CO)c[nH]c13)C(=O)c1ccccc1C2=O : GI50 is 3.34 µM

Summary for this molecule, F : GI50 is 6220 µM

Summary for this molecule, COc1ccc(-c2cc(-c3cc(Cl)ccc3Cl)nc3n[nH]c(N)c23)cc1 : GI50 is 31.8 µM

Summary for this molecule, Nc1c(C(=O)c2cccc(CCCN3CCOCC3)c2)cnn1-c1ccc(F)cc1 : GI50 is > 25 µM

Summary for this molecule, CC(=O)NCCc1c2c(c3nccc4c3c1Nc1ccccc1-4)OCS2 : GI50 is 3.17 µM

Summary for this molecule, CC12CCC3C(CCC4Cc5[nH]c6ccccc6c5CC43C)C1CCC2O (stereo unspecified) : GI50 is 2.89 µM

The values you see were collected from PubChem BioAssay (NCI).
